# Target Under Test: VEGF receptor KDR (Homo sapiens)
# Construct: made in house; host or cells: Sf9 cells (Spodoptera frugiperda), baculovirus
# Sequence (P35968 806-1356): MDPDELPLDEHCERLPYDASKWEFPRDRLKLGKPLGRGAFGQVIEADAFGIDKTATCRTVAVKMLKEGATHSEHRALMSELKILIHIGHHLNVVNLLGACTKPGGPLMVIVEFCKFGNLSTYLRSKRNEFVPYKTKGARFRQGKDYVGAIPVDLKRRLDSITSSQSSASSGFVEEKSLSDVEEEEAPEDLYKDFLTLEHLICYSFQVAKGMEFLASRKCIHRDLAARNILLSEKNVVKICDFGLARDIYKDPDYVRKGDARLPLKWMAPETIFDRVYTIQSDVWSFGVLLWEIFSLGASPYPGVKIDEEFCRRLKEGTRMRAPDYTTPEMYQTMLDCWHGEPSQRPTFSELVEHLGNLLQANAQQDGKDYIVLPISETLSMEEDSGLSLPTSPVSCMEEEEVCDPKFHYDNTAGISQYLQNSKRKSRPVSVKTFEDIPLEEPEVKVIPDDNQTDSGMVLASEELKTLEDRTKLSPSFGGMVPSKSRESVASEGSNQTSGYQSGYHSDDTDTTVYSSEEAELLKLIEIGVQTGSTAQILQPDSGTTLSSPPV
# Test: In vitro receptor tyrosine kinase assay (DELFIA), VEGF receptor KDR
# Assay type: biochemical
# Measurement Setup: read-out: VEGFR IC50
pIC50: −log10 of the molar value.
Exercise: state measured pIC50 for each of the compounds provided.

Exam item: Provide only the value of recorded pIC50 for O=C1N(C(=S)Nc2ccc(Oc3ccnc4cc(-c5cn(CCN6CCCC6)cn5)sc34)c(F)c2)CCN1c1ccc(F)cc1
Marked response: > 7.30

Exam item: Provide only the value of recorded pIC50 for CCn1cnc(-c2cc3nccc(Oc4ccc(NC(=O)CC(=O)Nc5ccccc5O)cc4F)c3s2)c1
Marked response: > 7.30

Exam item: Provide only the value of recorded pIC50 for COc1ccccc1NC(=O)CC(=O)Nc1ccc(Oc2ccnc3cc(C#CCN(C)C)sc23)c(F)c1
Marked response: 6.60 to 7.30

Exam item: Provide only the value of recorded pIC50 for Cn1cnc(-c2cc3nccc(Oc4ccc(NC(=O)C5(C(=O)Nc6ccccc6)CC5)cc4F)c3s2)c1
Marked response: > 7.30

Exam item: Provide only the value of recorded pIC50 for COc1ccc(NC(=O)C2(C(=O)Nc3ccc(Oc4ccnc5cc(-c6cn(C)cn6)sc45)c(F)c3)CC2)cc1
Marked response: > 7.30

Exam item: Provide only the value of recorded pIC50 for CC(C)n1cnc(-c2cc3nccc(Oc4ccc(NC(=O)C5CC(=O)N(c6ccccc6)C5)cc4F)c3s2)c1 (stereo not drawn)
Marked response: < 6.30

Exam item: Provide only the value of recorded pIC50 for CN1CCN(Cc2ccc(-c3cc4nccc(Oc5ccc(NC(=O)CC(=O)Nc6ccccc6)cc5F)c4s3)nc2)CC1
Marked response: > 7.30

Exam item: Provide only the value of recorded pIC50 for CN(C)[C@H]1CCN(Cc2ccc(-c3cc4nccc(Oc5ccc(NC(=O)CC(=O)Nc6ccccc6)cc5F)c4s3)cc2)C1
Marked response: > 7.30

Exam item: Provide only the value of recorded pIC50 for Cn1cnc(-c2cc3nccc(Oc4ccc(NC(=O)C5(C)CCN(c6ccccc6)C5=O)cc4F)c3s2)c1 (stereo not drawn)
Marked response: 6.30 to 6.60

Exam item: Provide only the value of recorded pIC50 for Cn1cnc(-c2cc3nccc(Oc4ccc(NC(=O)CC(=O)Nc5ccccc5)cc4F)c3s2)c1 [drawing 287]
Marked response: > 7.30

Exam item: Provide only the value of recorded pIC50 for CCN(CC)CCn1cnc(-c2cc3nccc(Oc4ccc(NC(=O)CC(=O)N(C)c5ccccc5)cc4F)c3s2)c1
Marked response: > 7.30

Exam item: Provide only the value of recorded pIC50 for CN(C(=O)C1(C(=O)Nc2ccc(Oc3ccnc4cc(-c5cn(C)cn5)sc34)c(F)c2)CC1)c1ccccc1
Marked response: 6.60 to 7.30

Exam item: Provide only the value of recorded pIC50 for Cn1cncc1-c1cc2nccc(Oc3ccc(NC(=O)CC(=O)Nc4ccccc4)cc3F)c2s1 [drawing 288]
Marked response: > 7.30

Exam item: Provide only the value of recorded pIC50 for O=C(CC(=O)Nc1ccc(Oc2ccnc3cc(-c4cn(CCO)cn4)sc23)c(F)c1)Nc1ccccc1
Marked response: > 7.30

Exam item: Provide only the value of recorded pIC50 for Cn1cnc(-c2cc3nccc(Oc4ccc(NC(CC(=O)Nc5ccc(F)cc5)C(F)(F)F)cc4)c3s2)c1 (stereo not drawn)
Marked response: > 7.30

Exam item: Provide only the value of recorded pIC50 for CN1CCN(CCN(C)Cc2ccc(-c3cc4nccc(Oc5ccc(NC(=O)CC(=O)N(C)c6ccccc6)cc5F)c4s3)cc2)CC1
Marked response: > 7.30

Exam item: Provide only the value of recorded pIC50 for O=C(CC(=O)Nc1ccccc1F)Nc1ccc(Oc2ccnc3cc(-c4cccc(CN5CCOCC5)c4)sc23)c(F)c1
Marked response: 6.60 to 7.30

Exam item: Provide only the value of recorded pIC50 for COc1ccccc1NC(=O)CC(=O)Nc1ccc(Oc2ccnc3cc(-c4nccn4C)sc23)c(F)c1 [drawing 284]
Marked response: > 7.30

Measured values drawn from patent US8329726B2 for this set.
